Reported inhibition at 1 µM values are given for each entry in this list.
Target: dopaminergic receptors D3 (Homo sapiens)
Sequence (P35462 whole entry): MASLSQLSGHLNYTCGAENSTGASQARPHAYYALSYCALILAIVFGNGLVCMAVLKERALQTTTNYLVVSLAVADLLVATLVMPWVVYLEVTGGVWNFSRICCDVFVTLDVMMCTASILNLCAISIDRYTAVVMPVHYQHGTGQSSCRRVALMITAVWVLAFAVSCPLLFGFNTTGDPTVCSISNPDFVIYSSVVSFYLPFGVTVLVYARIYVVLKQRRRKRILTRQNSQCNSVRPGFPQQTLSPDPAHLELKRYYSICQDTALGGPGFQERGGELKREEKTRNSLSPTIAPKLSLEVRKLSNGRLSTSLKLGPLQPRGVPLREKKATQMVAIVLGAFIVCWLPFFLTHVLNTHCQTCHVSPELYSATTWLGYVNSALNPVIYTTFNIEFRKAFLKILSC
Experiment: Radioligand binding assay, dopaminergic D3 receptors
Conditions: test compound 1×10^−6 M
parameter.measured: inhibition at 1 µM (%)

compound="O=S(=O)(NC1CCN(CCCc2noc3cc(F)ccc23)C1)c1cccc(O)c1 (centres unmarked)" target_desc="dopaminergic receptors D3 (Homo sapiens)" parameter_measured="inhibition at 1 µM" value_observed=31
compound="O=S(=O)(NCC1CCN(CCOc2cccc3ccccc23)C1)c1ccc(F)c(Cl)c1 (centres unmarked)" target_desc="dopaminergic receptors D3 (Homo sapiens)" parameter_measured="inhibition at 1 µM" value_observed=90
compound="O=S(=O)(NCC1CCN(CCOc2cccc3ccccc23)C1)c1ccc2cc(Cl)ccc2c1 (centres unmarked)" target_desc="dopaminergic receptors D3 (Homo sapiens)" parameter_measured="inhibition at 1 µM" value_observed=91
compound=O=S(=O)(NCC1CN(CCOc2cccc3ccccc23)C1)c1ccc2cc(Cl)ccc2c1 target_desc="dopaminergic receptors D3 (Homo sapiens)" parameter_measured="inhibition at 1 µM" value_observed=100
compound=O=S(=O)(NCC1CN(CCCc2noc3cc(F)ccc23)C1)c1ccc(Cl)s1 target_desc="dopaminergic receptors D3 (Homo sapiens)" parameter_measured="inhibition at 1 µM" value_observed=68
compound=O=S(=O)(N[C@H]1CCN(CCCc2noc3cc(F)ccc23)C1)c1ccc2ccccc2c1 target_desc="dopaminergic receptors D3 (Homo sapiens)" parameter_measured="inhibition at 1 µM" value_observed=85
compound="CC1(C)Cc2cccc(OCCN3CCC(NS(=O)(=O)c4cccc(O)c4)C3)c2O1 (centres unmarked)" target_desc="dopaminergic receptors D3 (Homo sapiens)" parameter_measured="inhibition at 1 µM" value_observed=97
compound=O=S(=O)(NCC1CN(CCOc2cccc3c2OCCO3)C1)c1ccc(-c2ccccc2)cc1 target_desc="dopaminergic receptors D3 (Homo sapiens)" parameter_measured="inhibition at 1 µM" value_observed=25

###

Target: serotonin transporter (SERT) (Homo sapiens, UniProt P31645)
Construct: expressed in transfected cells; host or cells: CHO cells
Sequence (P31645 whole entry): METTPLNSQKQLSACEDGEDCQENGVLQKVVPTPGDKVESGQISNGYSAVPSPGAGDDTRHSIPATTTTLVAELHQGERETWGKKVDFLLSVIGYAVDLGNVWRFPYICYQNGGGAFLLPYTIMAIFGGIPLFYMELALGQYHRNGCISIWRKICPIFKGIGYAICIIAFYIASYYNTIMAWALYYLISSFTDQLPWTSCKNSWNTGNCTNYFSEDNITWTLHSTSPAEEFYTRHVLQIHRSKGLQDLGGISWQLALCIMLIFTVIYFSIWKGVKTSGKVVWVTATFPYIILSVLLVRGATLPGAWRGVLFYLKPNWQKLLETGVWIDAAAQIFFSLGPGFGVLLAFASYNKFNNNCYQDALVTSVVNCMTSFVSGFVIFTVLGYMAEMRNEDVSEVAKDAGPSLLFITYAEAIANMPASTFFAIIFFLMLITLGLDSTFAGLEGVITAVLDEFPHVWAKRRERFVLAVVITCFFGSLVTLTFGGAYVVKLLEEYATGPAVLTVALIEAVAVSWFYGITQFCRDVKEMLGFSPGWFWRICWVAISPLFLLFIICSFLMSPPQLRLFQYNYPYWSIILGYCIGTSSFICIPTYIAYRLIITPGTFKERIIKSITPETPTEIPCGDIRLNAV
Assay: Radioligand binding assay, serotonin transporter (SERT)
Conditions: binding assay, test compound 1×10^−6 M
Would you mind labelling by inhibition at 1 µM? At or over 20% is Fulfilled, under is Not fulfilled.

compound=O=S(=O)(NCC1CN(CCOc2cccc3ccccc23)C1)c1cc2ccccc2s1 target_desc="serotonin transporter (SERT) (Homo sapiens, UniProt P31645)" discrete_label=Fulfilled
compound="O=S(=O)(NCC1CCN(CCOc2cccc3ccccc23)C1)c1ccc(F)c(F)c1 (centres unmarked)" target_desc="serotonin transporter (SERT) (Homo sapiens, UniProt P31645)" discrete_label=Fulfilled
compound=Cc1c(S(=O)(=O)NCC2CN(CCOc3cccc4c3OCCO4)C2)sc2ccc(Cl)cc12 target_desc="serotonin transporter (SERT) (Homo sapiens, UniProt P31645)" discrete_label="Not fulfilled"
compound="O=S(=O)(NCC1CCN(CCCc2noc3cc(F)ccc23)C1)c1ccc2c(c1)OCO2 (centres unmarked)" target_desc="serotonin transporter (SERT) (Homo sapiens, UniProt P31645)" discrete_label="Not fulfilled"
compound=O=S(=O)(NC1CN(CCOc2cccc3[nH]ccc23)C1)c1ccccc1 target_desc="serotonin transporter (SERT) (Homo sapiens, UniProt P31645)" discrete_label="Not fulfilled"
compound="O=S(=O)(NCC1CCN(CCCc2noc3cc(F)ccc23)C1)c1csc2ccccc12 (centres unmarked)" target_desc="serotonin transporter (SERT) (Homo sapiens, UniProt P31645)" discrete_label="Not fulfilled"
compound=Cc1c(S(=O)(=O)N[C@@H]2CCN(CCCc3noc4cc(F)ccc34)C2)sc2ccc(Cl)cc12 target_desc="serotonin transporter (SERT) (Homo sapiens, UniProt P31645)" discrete_label=Fulfilled
compound="O=S(=O)(NCC1CCN(CCOc2cccc3c2OCCO3)C1)c1ccc2scnc2c1 (centres unmarked)" target_desc="serotonin transporter (SERT) (Homo sapiens, UniProt P31645)" discrete_label=Fulfilled
compound=Cc1c(S(=O)(=O)NCC2CN(CCOc3cccc4ccccc34)C2)sc2ccc(Cl)cc12 target_desc="serotonin transporter (SERT) (Homo sapiens, UniProt P31645)" discrete_label=Fulfilled
compound="O=S(=O)(NCC1CCN(CCCc2noc3cc(F)ccc23)C1)c1ccccc1 (centres unmarked)" target_desc="serotonin transporter (SERT) (Homo sapiens, UniProt P31645)" discrete_label="Not fulfilled"
compound="O=S(=O)(NC1CCN(CCOc2cccc3[nH]ccc23)C1)c1ccccc1 (centres unmarked)" target_desc="serotonin transporter (SERT) (Homo sapiens, UniProt P31645)" discrete_label="Not fulfilled"
compound="COc1cccc(S(=O)(=O)NCC2CCN(CCCc3noc4cc(F)ccc34)C2)c1 (centres unmarked)" target_desc="serotonin transporter (SERT) (Homo sapiens, UniProt P31645)" discrete_label=Fulfilled
compound="O=S(=O)(NC1CCN(CCOc2nsc3ccccc23)C1)c1ccc2ccccc2c1 (centres unmarked)" target_desc="serotonin transporter (SERT) (Homo sapiens, UniProt P31645)" discrete_label=Fulfilled
compound=O=S(=O)(NCC1CN(CCOc2cccc3c2OCCO3)C1)c1ccc(C(F)(F)F)cc1 target_desc="serotonin transporter (SERT) (Homo sapiens, UniProt P31645)" discrete_label="Not fulfilled"
compound=O=S(=O)(NC1CN(CCOc2cccc3[nH]ccc23)C1)c1ccc(F)cc1 target_desc="serotonin transporter (SERT) (Homo sapiens, UniProt P31645)" discrete_label="Not fulfilled"

Values compiled from patent US20140135310A1.
